Test system: MS2 coat protein
Experiment: apparent KD of MS2 coat protein; designed switch direction (-1 OFF switch, 1 ON switch): -1; higher = weaker reporter binding
Details: Eterna round: R95; input ligand: none
endpoint: apparent KD of MS2 coat protein

- sequence.record: "AGUACUAACACGAAAGUGUUAGUACAAUAAGCUUGUGUUACAUGAGGAUCACCCAUGUCCUCAUAAGCUCGUCUUAG [Mat - Sensor v3 - Turn-off var 2 - D50] (puzzle: Sensor v3, turn-off variant 2)"
  apparent KD of MS2 coat protein: "45.4 nM"

Next:
Task item: Returns the measured apparent KD of MS2 coat protein for the input sequence. Input: GAUAAGGUAGGAUAUACGAAUAAAGAGGGUAGUAAUAAUACACAUGAGGAUCACCCAUGUAGAAGGACCAAUAG [Mat - Exclusion 2 - Mod of my Tesla design - D42] (puzzle: Exclusion 2)
Reply: 17.9 nM

----------
System: MS2 coat protein
Assay: apparent KD of MS2 coat protein; designed switch direction (-1 OFF switch, 1 ON switch): 1; higher = weaker reporter binding
Conditions: Eterna round: R95; input ligand: microRNA oligo, concentration not stated
Below, each entry is listed with its recorded apparent KD of MS2 coat protein.

Example cases with answers are listed next.
- sequence.record: "AAGUUAAGCUUUUUGUUCUGCCUAUUCUGACAUGAGGAUCACCCAUGUGGUCGAACGACUACGUGUGUAGUUGAGAU [JR_SHM208A_Sub030] (puzzle: Sensor for hsa-mir-208a)"
  apparent KD of MS2 coat protein: "252 nM"
- sequence.record: "AGGGAGGAAGCUGAGGAUAUCGUAAGGAGGACAUGAGGAUCACCCAUGUGUAUAGAAUUGGAGGACGAGAAGGCAGAGGAGUGGG [JR_SS2_Sub052] (puzzle: Same State 2)"
  apparent KD of MS2 coat protein: "29.3 nM"
- sequence.record: "UGGAUCUAGGCUUGCCUGGGUCCAUGCUGACAUGAGGAUCACCCAUGUGCAUCCUACAAGCUUUUUGCUUGUCUGCC (puzzle: Sensor for hsa-mir-208a)"
  apparent KD of MS2 coat protein: "122 nM"
- sequence.record: "GUAAGGCAAGCUUUUUUCUCGUAGUGUAAACAUGAGGAUCACCCAUGUGCUCGCCCUGGACCUUUGGAUCGCAGAAA [Tiesmain] (puzzle: Sensor for hsa-mir-208a)"
  apparent KD of MS2 coat protein: "22.2 nM"
- sequence.record: "AUUAAACAUGAGGAUCACCCAUGUCAUCAAAGUCGAGGAUAUGGGCAAAUAAAAUAAGAACCAGAAGGCGAAUAAU [salish99_ss1_r3_073] (puzzle: Same State 1)"
  apparent KD of MS2 coat protein: "122 nM"
- sequence.record: "UUAUAACAUGAGGAUCACCCAUGUCAUCUAAGUCGAGGAUAUGGGCAAAUAUAAUAAGAACCAGAAGGCGAAUAUU [Mat - Same State 1 - Mod of UCT - D33] (puzzle: Same State 1)"
  apparent KD of MS2 coat protein: "14.2 nM"
- sequence.record: "GGUCCAGCCUGAGCUGGACAAAGGCAUGUACAUGAGGAUCACCCAUGUCAUGUACAAGCUUUUUGCUCGUCUUAAAA [JL mod - D87 - 3] (puzzle: Sensor for hsa-mir-208a)"
  apparent KD of MS2 coat protein: "13.8 nM"
- sequence.record: "GUAAAACAUGAGGAUCACCCAUGUCAAUGUAGUCGAGGAUAUGGGUAGCUAUGAGGCGUACUAGAAGGCGAAAAGU [Mat - Same State 1 - Mod of JL - D18] (puzzle: Same State 1)"
  apparent KD of MS2 coat protein: "85.5 nM"

Task item: Returns the measured apparent KD of MS2 coat protein for the input sequence. Input: GGUCCAGCCUGAGCUGGACAAAAGCAUGUACAUGAGGAUCACCCAUGUUCAUGUACAAGCUUUUUGCUCGUCUUAAC [salish99_208a_r3_038] (puzzle: Sensor for hsa-mir-208a)
Reply: 16.9 nM

Task item: Moving on to the next sequence: CACAAUCUAUCUGAGGAUAUCAUGAAAAAAACAUGAGGAUCACCCAUGUGCAGGAAAACUGCAUAUGAGAAGGCAGAUAGAUUGU [salish99_SS2_r3_015] (puzzle: Same State 2)
Reply: 720 nM

----------
Tested on: MS2 coat protein
Assay: apparent KD of MS2 coat protein; designed switch direction (-1 OFF switch, 1 ON switch): -1; higher = weaker reporter binding
Conditions: Eterna round: R95; input ligand: FMN 200 uM
Kindly return YES if reported apparent KD of MS2 coat protein is no lower than 80 nM; return NO if it is lower.

Examples from the recorded data:
- sequence.record: "AGUAACCGUCACGAAAGUGAUGGUUACACAAGCAAAUGUACAUGAGGAUCACCCAUGUCCUCAUUUGCUCGUCUUAU [Sensor 3 - 45] (puzzle: Sensor v3, turn-off variant 2)"
  assayed.target: "MS2 coat protein"
  group.label: "NO"
- sequence.record: "GAAAAGGUAGGAUAUACGAAAAAUAAGGGUAGAAAAAAAACACAUGAGGAUCACCCAUGUAGAAGGACCAAAAG [salish99_ex2_r3_082] (puzzle: Exclusion 2)"
  assayed.target: "MS2 coat protein"
  group.label: "NO"

Task item: Is apparent KD of MS2 coat protein for GCUUGGCGAGGAUAUACAUGAGGAUCACCCAUGUGAGAGAAUAAAGUGAGGAAGAAAAGUAGAAGGCGCUGAGG [Mat - Exclusion 3 - Mod of Salish D58] (puzzle: Exclusion 3) at or above 80 nM?
Reply: YES

Task item: Moving on to the next sequence: AAAAAACAAGGAUAUACAAAAAAAAAAUGUGAUAAAAAACCACAUGAGGAUCACCCAUGUAGAAGGUGUAAAAA [JR_Exclusion2_Sub003] (puzzle: Exclusion 2)
Reply: NO

----------
Test system: MS2 coat protein
Assay: apparent KD of MS2 coat protein; designed switch direction (-1 OFF switch, 1 ON switch): -1; higher = weaker reporter binding
Conditions: input ligand: FMN 200 uM
Kindly return t if reported apparent KD of MS2 coat protein is no lower than 0.02 µM; return f if it is lower.

Examples from the recorded data:
- sequence.record: "UAUAGGCGAGGAUAUACUAACAAACGGAUCGCCAAACAAGAACUUGAGGAUCACCCAAGUAGAAGGCGCAAUUG [Gezaonsoma] (Eterna round: R97, puzzle: Exclusion 2)"
  group.label: "f"
- sequence.record: "AGUAGUUCAGGAUAUGAUGAAGAGAACAUGAGGAUCACCCAUGUUGCAUCGUUUUUAUCAUCAGAAGGGAAUAACU [JR_Ex5_Sub085] (Eterna round: R97, puzzle: Exclusion 5)"
  group.label: "f"
- sequence.record: "GGCAUGUAAGGAUAUGCCACGGAGGCCUUUGGCCUCCGAAAGCAGAAGGUACAUGAGGAUCACCCAUGUGAUAA [jl-ex4-4.59 ViennaUCT mod] (Eterna round: R97, puzzle: Exclusion 4)"
  group.label: "t"
- sequence.record: "GGUGAGCUAGGAUAUGCUUUGGGCUCGCUUUCCUUCGAUAAACUUGAGGAUCACCCAAGUAGAAGGAGCUUGCC [salish99_ex2_r4_033] (Eterna round: R97, puzzle: Exclusion 2)"
  group.label: "f"

Task item: Is apparent KD of MS2 coat protein for AUAAAACAUGAGGAUCACCCAUGUCAGGAUAUACGAUUCCACCCUAACUGCGUGGAACGUAGAAGGGACAUAGG [Exclusion 1 (MOD6 Esqu)] (Eterna round: R97, puzzle: Exclusion 1) at or above 0.02 µM?
Reply: t

----------
Tested on: K4 kissing-loop RNA reporter;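 note: bound reporter read as fluorescence of individual clusters on recovered sequencing chips by microscopy, with normalized cluster intensities fitted with a binding model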
Experiment: apparent KD of K4 kissing-loop reporter; higher = weaker reporter binding
Conditions: Eterna round: R107; input ligand: FMN 200 uM
endpoint: apparent KD of K4 kissing-loop reporter (nM)
Use nM as the unit, but write only the number.

Example cases with answers are listed next.
- sequence.record: "AAUUUUAAUCAUAAAUAAUAAAUAAAUGAUACCAGUAUUUUUUUUUACCCUUGGCAGCGUAUAUAAGGGCAGUGAUGUUGUCAGA [whbob_SS_Theo_A_w60]"
  assayed.target: "K4 kissing-loop RNA reporter"
  unit.descriptor: "nM"
  apparent KD of K4 kissing-loop reporter: 236
- sequence.record: "CGCGCCCAGCCGGAUACCAGUGACCCGCUGGGAACCGCGGGCCCAGAGUGAUGUUCGGGACACCCUUGGCAGCCGCCUGGGCGAC [#2 Same State - Theophylline B Attempt #8 (HarryS)]"
  assayed.target: "K4 kissing-loop RNA reporter"
  unit.descriptor: "nM"
  apparent KD of K4 kissing-loop reporter: 993
- sequence.record: "AAAUCUUUCAGAAGGAGCGUGGAUUAUUCUUAUAUAUUUAUUACGAGUGAUGUUCGUAAUUCACAGGUAGGUCGCUGAUCAAUAA [JR_ExcArginiB_Sub006]"
  assayed.target: "K4 kissing-loop RNA reporter"
  unit.descriptor: "nM"
  apparent KD of K4 kissing-loop reporter: 87.5

Task item: Returns the measured apparent KD of K4 kissing-loop reporter for the input sequence. Input: UGACUGGACUGAAGGAGCGCUGAAGGAGCGUAAGCAGUGAUGUUGCUUACAGGUAGGUCGCAGCAGGUAGGUCGCAGUCUAGUCU
Reply: 93.5

Task item: Moving on to the next sequence: UUGAGCCGGACGGAAGUCCGGCUCUGCGAGCGAGGACCGGUACGGCCGCCACUCGGUGCAGUGAUGUUGCAUGGCCGCAAGGCCG [#2 Exclusion - Tryptophan A Attempt #4 (HarryS)]
Reply: 270

Task item: Moving on to the next sequence: UGGACAUGACUCGAUAAGAGUCAAUGGGAUACCAGUGACGAAAGUCACCCUUGGCAGCUCAACUGCCAGUGAUGUUGGUAGUCCA [Astros-Elo-mod#2]
Reply: 231

Task item: Moving on to the next sequence: GGAGAGGUCUUGUUUGGAUGUGUUUAAUGGCGAGGACCGGUACGGCCGCCACUCGGGUGAUGUUAGUGAUGUUGAUGUAGUGAUG [wzwmullin]
Reply: 103

Task item: Moving on to the next sequence: AAGUCAUAGGCAGGAUAUGCUUAGUAUUAAGGCCAUAUAUACGUAUAGAGUGAUGUUUUGUACCAGGCAGAAGGGCUACAUCAGU [FMN B Excl V6 (+A)]
Reply: 448

Task item: Moving on to the next sequence: UGUCAUUGGUCGGCCGCCACUUCAUGUAGAGUGAUGUUUUGUAGGACGGAUCGAAAGAUCUGUCGGAGGACCGGGACCGAUGACU [FiskerMod 16 - Jieux - Same State - Tryptophan B]
Reply: 121

Task item: Moving on to the next sequence: UUAUAUAUAUCAGAUACCAGUAUAAUGGAAACAAAUUAUGUUAUGAGUGAUGUUCAUGUAUGCCCUUGGCAGCUGGUAUGGGUUU [KL-XTheo-B20]
Reply: 356

Task item: Moving on to the next sequence: AGUAAUAUCACGGCCGCCACUGAUUAUUGUUUUUAUAGUUAUAAAUCUUGCCAGUGAUGUUGGUUCAGGACCGGGUGAGUUAAUA [JR_SSTryptoB_Sub001]
Reply: 429

Task item: Moving on to the next sequence: GCCAGUGCACGAAGGAGCGCCGUGACAGGUUACUGCCUUGGGCAGUGAUGUUGCUCAAUCUGGCAGGUAGGUCGCGUGCACUGGC
Reply: 169

Task item: Moving on to the next sequence: CUUGAUGUAGCGGCCGCCACUCUAGAUCCGCAUCGGAUGAGGUACUUGAAGUGAUGUUUUGAGGUGAGGACCGGGCUCUAAAGAA [theeternabot_sameState_KL_Trp_B_16]
Reply: 750
